System tested: Ephrin type-A receptor 4 (Mus musculus)
Measurement notes: inhibitors of EphA4 binding to KYL peptide, primary screen, biochemical, colorimetric, mouse EphA4 (AID 689)
Condition description: EphA4-AP binding to KYL peptide, pNPP A405, at 10 µM, stronger effect = higher value
Among all 62,000 compounds or so, about 80 (0.1%) were called active. Not all results are given here. Results with a measured potency or affinity are listed apart.
Below, each entry is listed alongside its reported inhibition.

Some solved entries appear below for comparison.
| Compound | System tested | inhibition |
| --- | --- | --- |
| Cc1cc2cc(CNC(=O)C3CC3)ccc2n1C | Ephrin type-A receptor 4 (Mus musculus) | -5.8% (inactive) |
| CC(C)C(C(=O)O)N1C(=O)/C(=C/c2ccc3c(c2)OCO3)SC1=S (stereo unspecified) | Ephrin type-A receptor 4 (Mus musculus) | -2% [this sample at 5 µg/mL] (inactive) |
| Cn1c(=O)[nH]c(=O)c2c1nc(CN1CCN(c3cccc(Cl)c3)CC1)n2CCN1CCOCC1 | Ephrin type-A receptor 4 (Mus musculus) | 8.6% (inactive) |
| CC(C(=O)O)N1C(=O)/C(=C/c2ccc3c(c2)OCO3)SC1=S (stereo unspecified) | Ephrin type-A receptor 4 (Mus musculus) | 0.6% [this sample at 5 µg/mL] (inactive) |

Name the recorded inhibition for "Oc1ccc(-c2cn3c(n2)SCC3)cc1" . 4.1% (inactive)

Cool, now CC(C(=O)O)N1C(=O)/C(=C/c2ccc([N+](=O)[O-])cc2)SC1=S (stereo unspecified) 3.4% [this sample at 5 µg/mL] (inactive)

Cool, now "CCOc1cc(C(=S)N2CCOCC2)ccc1OS(=O)(=O)c1ccc(NC(C)=O)cc1" -6.9% (inactive)

Cool, now "O=C(Cc1ccc(F)cc1)Nc1ccccc1Br" -10% [this sample at 5 µg/mL] (inactive)

Cool, now CN1C(=O)/C(=C2\SC(=S)N(CC3CCCO3)C2=O)c2ccccc21 (stereo unspecified) -3.2% (inactive)

Cool, now "COCCNC(=O)CN(C(=O)CCC(=O)Nc1nccs1)c1ccccc1OC" -10.3% (inactive)

Cool, now "Cc1cccc2sc(NC(=O)c3ccc(Cl)s3)nc12" -3.3% (inactive)

Cool, now "CCOC(=O)c1cc(-c2ccc(C=C3C(=O)N(C)C(=O)N(C)C3=O)o2)ccc1Cl" 11% [this sample at 5 µg/mL] (inactive)

* * *

System tested: Ephrin type-A receptor 4 (Mus musculus) (UniProt Q03137)
Sequence (Q03137 whole entry, looked up): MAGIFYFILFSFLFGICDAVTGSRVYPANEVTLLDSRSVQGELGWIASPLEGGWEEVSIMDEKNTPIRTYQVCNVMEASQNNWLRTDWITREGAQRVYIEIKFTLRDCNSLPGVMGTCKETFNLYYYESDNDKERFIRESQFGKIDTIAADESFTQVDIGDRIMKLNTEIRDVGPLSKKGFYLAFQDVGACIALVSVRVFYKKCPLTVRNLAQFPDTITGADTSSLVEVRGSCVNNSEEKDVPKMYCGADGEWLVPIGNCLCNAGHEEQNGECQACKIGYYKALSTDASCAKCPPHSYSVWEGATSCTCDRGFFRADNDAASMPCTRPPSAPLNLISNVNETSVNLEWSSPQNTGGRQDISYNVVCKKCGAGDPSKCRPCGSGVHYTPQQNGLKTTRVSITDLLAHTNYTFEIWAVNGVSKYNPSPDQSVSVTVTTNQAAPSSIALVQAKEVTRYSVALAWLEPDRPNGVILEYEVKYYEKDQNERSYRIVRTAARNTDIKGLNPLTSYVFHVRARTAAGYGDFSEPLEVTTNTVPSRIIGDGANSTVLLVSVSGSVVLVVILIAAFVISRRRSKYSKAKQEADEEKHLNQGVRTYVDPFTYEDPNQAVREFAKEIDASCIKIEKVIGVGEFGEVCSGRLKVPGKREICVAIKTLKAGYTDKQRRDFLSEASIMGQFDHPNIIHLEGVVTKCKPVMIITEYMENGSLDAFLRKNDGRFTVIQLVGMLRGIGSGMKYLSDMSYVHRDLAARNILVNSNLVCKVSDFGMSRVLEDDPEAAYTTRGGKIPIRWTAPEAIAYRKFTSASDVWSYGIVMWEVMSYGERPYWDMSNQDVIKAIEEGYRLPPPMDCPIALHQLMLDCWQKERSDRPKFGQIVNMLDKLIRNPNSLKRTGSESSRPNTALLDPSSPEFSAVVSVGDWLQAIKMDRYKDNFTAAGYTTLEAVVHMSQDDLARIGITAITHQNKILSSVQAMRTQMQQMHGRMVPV
Measurement notes: inhibitors of EphA4 binding to KYL peptide, primary screen, biochemical, colorimetric, mouse EphA4 (AID 689)
Condition description: EphA4-AP binding to KYL peptide, pNPP A405, at 10 µM, stronger effect = higher value
In all, about 62,000 compounds went through this assay and about 80 (0.1%) were called active. These entries were drawn from the full list. Measured potencies and affinities stand elsewhere.
Endpoint: inhibition (%)
The reply should be a number in %, with the unit left off.

Name the recorded inhibition for "O=C(C/C=N\OCc1c(Cl)cccc1Cl)Oc1ccc(Cl)cc1Cl" . -11.4

* * *

System tested: Ephrin type-A receptor 4 (Mus musculus)
Measurement notes: inhibitors of EphA4 binding to KYL peptide, primary screen, biochemical, colorimetric, mouse EphA4 (AID 689)
Condition description: EphA4-AP binding to KYL peptide, pNPP A405, at 10 µM, stronger effect = higher value
About 80 (0.1%) of roughly 62,000 compounds were called active. Only a sample is shown. Results with a measured potency or affinity are listed apart.
Endpoint: inhibition

| Compound | System tested | Observed |
| --- | --- | --- |
| O=C(/C=C/c1ccc2c(c1)OCO2)c1ccc(Br)cc1 | Ephrin type-A receptor 4 (Mus musculus) | 3.2% [this sample at 5 µg/mL] (inactive) |
| CCSc1nnc(-c2ccncc2)o1 | Ephrin type-A receptor 4 (Mus musculus) | -3% (inactive) |
| Cc1cc([N+](=O)[O-])nn1CC(=O)NNC(=S)Nc1ccc(Cl)cc1 | Ephrin type-A receptor 4 (Mus musculus) | -10.8% (inactive) |
| CCOC(=O)c1sc(NC(NC(=O)c2ccco2)(C(=O)OC)C(F)(F)F)nc1C (stereo unspecified) | Ephrin type-A receptor 4 (Mus musculus) | 4.3% (inactive) |
| COc1ccc(N2CCN(C(=O)c3csc4ccccc34)CC2)cc1 | Ephrin type-A receptor 4 (Mus musculus) | -8.7% (inactive) |
| O=C(O)CSc1nnc(-c2ccccc2)o1 | Ephrin type-A receptor 4 (Mus musculus) | -16.7% (inactive) |
| CCN(Cc1ccccc1)C(=O)c1ccc([N+](=O)[O-])cc1 | Ephrin type-A receptor 4 (Mus musculus) | 1.5% [this sample at 5 µg/mL] (inactive) |
| Nc1ccc(N(c2ccccc2)c2ccc(N)cc2)cc1 | Ephrin type-A receptor 4 (Mus musculus) | 5.1% (inactive) |

Name the recorded inhibition for C=CCN1C(=O)[C@]2(c3ccccc31)C1CCCC=C1C(C#N)=C(N)C2(C#N)C#N (stereo partly specified) . -6.6% (inactive)

Cool, now "Cc1ccc2[nH]c(=O)c(CN(CCCN3CCOCC3)C(=O)NC3CCCCC3)cc2c1" -12% (inactive)
